The reader will find reported IC50 values listed item by item below.
# targetEntity: UniProt Q9NYK1
# measurementProtocol: TLR7 inhibition reporter assay (HEK-Blue cells, SEAP reporter, gardiquimod stimulation)
# recordedConditions: HEK-Blue cells overexpressing human TLR7, SEAP reporter, gardiquimod 7.5 μM
Kindly answer with a numeric value in nM, unit omitted.

Guide cases for IC50, answers given:
{"molecule": "COc1cc(-c2[nH]nc(C(=O)NC3CCN(C4CCN(C(C)C)CC4)CC3)c2CC(F)(F)F)cn2ncnc12", "unitOfMeasure": "nM", "IC50": 4.98}
{"molecule": "Cc1cc(-c2[nH]nc(C(=O)NC3CCN(CC(=O)N(C)C)CC3)c2C(C)C)cn2ncnc12", "unitOfMeasure": "nM", "IC50": 23.3}
{"molecule": "Cc1cc(-c2[nH]nc(-c3ccncc3)c2C(C)C)cn2ncnc12", "unitOfMeasure": "nM", "IC50": 8.65}
{"molecule": "Cc1cc(-c2[nH]nc(-c3cnc(NC(C)C)cn3)c2C(C)C)cn2ncnc12", "unitOfMeasure": "nM", "IC50": 8.06}

Enquiry: Given Cc1cc(-c2[nH]nc(C3CCC(N(C)C(=O)C4CNC4)CC3)c2C(C)C)cn2ncnc12 (stereo not drawn) , state its recorded IC50.
Return: 7.77

Enquiry: Given Cc1cc(-c2[nH]nc(C(=O)NC3CCN(Cc4ncn(C)n4)CC3)c2C(C)C)cn2ncnc12 , state its recorded IC50.
Return: 8.95

====

# targetEntity: human TLR9 (Homo sapiens)
# Sequence (Q9NR96 26-1032): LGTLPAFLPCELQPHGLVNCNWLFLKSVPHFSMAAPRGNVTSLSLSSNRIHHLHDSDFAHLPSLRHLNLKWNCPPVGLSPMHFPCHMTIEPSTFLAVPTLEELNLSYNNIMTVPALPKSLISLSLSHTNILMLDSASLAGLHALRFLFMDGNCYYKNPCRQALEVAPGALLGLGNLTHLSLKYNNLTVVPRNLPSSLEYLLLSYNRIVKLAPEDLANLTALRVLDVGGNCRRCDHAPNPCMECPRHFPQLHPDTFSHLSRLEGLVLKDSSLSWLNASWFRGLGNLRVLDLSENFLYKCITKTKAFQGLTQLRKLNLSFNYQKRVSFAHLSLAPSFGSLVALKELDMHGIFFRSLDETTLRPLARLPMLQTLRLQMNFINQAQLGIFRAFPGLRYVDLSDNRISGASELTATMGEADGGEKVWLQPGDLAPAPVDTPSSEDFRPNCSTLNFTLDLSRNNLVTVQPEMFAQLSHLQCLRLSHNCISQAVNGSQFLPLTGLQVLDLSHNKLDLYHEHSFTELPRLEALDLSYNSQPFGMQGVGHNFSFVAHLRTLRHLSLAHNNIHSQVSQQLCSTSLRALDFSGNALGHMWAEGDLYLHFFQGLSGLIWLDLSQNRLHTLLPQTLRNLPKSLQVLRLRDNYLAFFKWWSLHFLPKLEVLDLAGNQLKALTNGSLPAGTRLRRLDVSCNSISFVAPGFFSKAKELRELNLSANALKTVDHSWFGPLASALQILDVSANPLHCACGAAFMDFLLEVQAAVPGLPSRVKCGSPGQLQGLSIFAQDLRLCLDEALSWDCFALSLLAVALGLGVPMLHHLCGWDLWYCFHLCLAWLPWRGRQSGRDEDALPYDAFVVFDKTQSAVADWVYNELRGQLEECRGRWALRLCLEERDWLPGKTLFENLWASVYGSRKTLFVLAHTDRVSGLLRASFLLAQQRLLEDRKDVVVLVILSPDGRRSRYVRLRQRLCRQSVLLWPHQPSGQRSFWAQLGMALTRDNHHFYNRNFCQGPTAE
# measurementProtocol: TLR9 inhibition reporter assay (HEK-Blue cells, SEAP reporter, ODN2006 stimulation)
# recordedConditions: HEK-Blue cells overexpressing human TLR9, SEAP reporter, ODN2006 5 nM
metric: IC50

Enquiry: Enter reported IC50 observed with human TLR9 (Homo sapiens) for Cc1cc(-c2[nH]nc(-c3cccc(N)c3)c2C(C)C)cn2ncnc12
Return: > 50 µM

Enquiry: Enter reported IC50 observed with human TLR9 (Homo sapiens) for COc1cc(-c2[nH]nc(-c3ccc(C4CCN(C)CC4)cc3)c2C(C)C)cn2ncnc12
Return: > 50 µM

Enquiry: Enter reported IC50 observed with human TLR9 (Homo sapiens) for CNC(=O)CN1CCC(NC(=O)c2n[nH]c(-c3cc(C)c4ncnn4c3)c2C(C)C)CC1
Return: 9.79 µM

====

# targetEntity: human TLR9 (Homo sapiens, UniProt Q9NR96)
# measurementProtocol: TLR9 inhibition reporter assay (HEK-Blue cells, SEAP reporter, ODN2006 stimulation)
# recordedConditions: HEK-Blue cells overexpressing human TLR9, SEAP reporter, ODN2006 5 nM
The reader will find reported IC50 values listed item by item below.
Kindly answer with a numeric value in µM, unit omitted.

{"molecule": "Cc1cc(-c2[nH]nc(-c3ccc4c(c3)CNCC4)c2C(C)C)cn2ncnc12", "IC50 / µM": 49.5}
{"molecule": "Cc1cc(-c2[nH]nc(-c3ccc(C4CCN(C)CC4)nn3)c2C(C)C)cn2ncnc12", "IC50 / µM": 38.1}
{"molecule": "Cc1cc(-c2[nH]nc(C(=O)N[C@H]3CCCN(C4COC4)C3)c2C(C)C)cn2ncnc12", "IC50 / µM": 0.383}
{"molecule": "Cc1cc(-c2[nH]nc(-c3nc4ccc(NC(C)C)cc4s3)c2C(C)C)cn2ncnc12", "IC50 / µM": 29.4}
{"molecule": "Cc1cc(-c2[nH]nc(-c3ncc(C4CCN(C(C)C(C)C)CC4)cn3)c2C(C)C)cn2ncnc12 (stereo not shown)", "IC50 / µM": 8.88}

Okay, now this molecule:
Enquiry: Given Cc1cc(-c2[nH]nc(-c3nc4c(s3)CN(C3CCN(C(C)C)CC3)CC4)c2C(C)C)cn2ncnc12 , state its recorded IC50.
Return: 29.2

====

The reader will find reported pIC50 values listed item by item below.
# targetEntity: human TLR9 (Homo sapiens, UniProt Q9NR96)
# Construct: host or cells: HEK-Blue cells
# measurementProtocol: TLR9 inhibition reporter assay (HEK-Blue cells, SEAP reporter, ODN2006 stimulation)
# Type: cell-based
# recordedConditions: HEK-Blue cells overexpressing human TLR9, SEAP reporter, ODN2006 5 nM
pIC50: −log10 of the molar value.

Guide cases for pIC50, answers given:
{"compound": "Cc1cc(-c2[nH]nc(C(=O)NC3CCC(O)CC3)c2C(C)C)cn2ncnc12 (stereo not drawn) [Example 32]", "pIC50": "< 4.30"}
{"compound": "COc1cc(-c2[nH]nc(-c3ccc(C4CCN(C5CCOCC5)CC4)cc3)c2C(C)C)cn2ncnc12 [Example 313]", "pIC50": "< 4.30"}

Okay, now this compound:
Enquiry: Given COc1cc(-c2[nH]nc(-c3cnc(C4CCN(CCF)CC4)cn3)c2C(C)C)cn2ncnc12 [Example 398] , state its recorded pIC50.
Return: < 4.30

====

# targetEntity: human TLR8 (Homo sapiens)
# Sequence (Q9NR97 27-1041): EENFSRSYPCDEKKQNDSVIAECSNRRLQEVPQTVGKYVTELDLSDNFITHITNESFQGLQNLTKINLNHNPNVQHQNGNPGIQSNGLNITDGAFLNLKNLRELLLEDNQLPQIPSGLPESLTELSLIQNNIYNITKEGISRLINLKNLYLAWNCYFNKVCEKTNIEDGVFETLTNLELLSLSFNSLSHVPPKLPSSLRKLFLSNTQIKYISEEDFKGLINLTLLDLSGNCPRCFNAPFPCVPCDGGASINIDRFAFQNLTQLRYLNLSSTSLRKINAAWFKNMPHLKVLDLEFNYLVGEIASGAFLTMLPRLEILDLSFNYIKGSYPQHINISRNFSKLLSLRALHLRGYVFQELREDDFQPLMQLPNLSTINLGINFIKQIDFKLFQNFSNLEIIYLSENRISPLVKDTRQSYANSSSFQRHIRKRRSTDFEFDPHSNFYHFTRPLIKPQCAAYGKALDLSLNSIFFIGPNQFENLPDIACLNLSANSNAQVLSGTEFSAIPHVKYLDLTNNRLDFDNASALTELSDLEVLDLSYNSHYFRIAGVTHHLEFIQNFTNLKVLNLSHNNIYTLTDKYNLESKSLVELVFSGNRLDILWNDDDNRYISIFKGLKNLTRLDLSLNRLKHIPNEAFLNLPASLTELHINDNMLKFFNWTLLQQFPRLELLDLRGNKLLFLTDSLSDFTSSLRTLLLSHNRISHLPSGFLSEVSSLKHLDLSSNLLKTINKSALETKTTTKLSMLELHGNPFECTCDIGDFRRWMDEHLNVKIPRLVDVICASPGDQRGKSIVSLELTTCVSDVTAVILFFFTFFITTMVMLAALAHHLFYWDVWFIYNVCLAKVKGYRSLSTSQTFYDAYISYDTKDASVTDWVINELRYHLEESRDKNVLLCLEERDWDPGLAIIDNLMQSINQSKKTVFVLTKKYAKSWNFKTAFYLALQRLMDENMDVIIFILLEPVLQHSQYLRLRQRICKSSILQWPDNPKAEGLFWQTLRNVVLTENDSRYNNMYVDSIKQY
# measurementProtocol: TLR8 inhibition reporter assay (HEK-Blue cells, SEAP reporter, R848 stimulation)
# recordedConditions: HEK-Blue cells overexpressing human TLR8, SEAP reporter, R848 15.9 μM
The reader will find reported pIC50 values listed item by item below.
# log scale: pIC50 equals minus log10 of the concentration in mol/L

{"compound": "Cc1cc(-c2[nH]nc(C(=O)NC3CCN(C(C)C)CC3)c2C(C)C)cc(C)n1", "targetEntity": "human TLR8 (Homo sapiens)", "pIC50": 5.81}
{"compound": "Cc1cc(-c2[nH]nc(-c3cn4c(n3)CNCC4)c2C(C)C)cn2ncnc12", "targetEntity": "human TLR8 (Homo sapiens)", "pIC50": 6.15}
{"compound": "Cc1cc(-c2[nH]nc(C(=O)NCC3CN(C)CCO3)c2C(C)C)cn2ncnc12 (stereo not shown) [Example 134]", "targetEntity": "human TLR8 (Homo sapiens)", "pIC50": 8.89}

Okay, now this compound:
Enquiry: Given Cc1cc(-c2[nH]nc(-c3ccc4c(c3)CCN(CC(=O)N(C)C)C4)c2C(C)C)cn2ncnc12 , state its recorded pIC50.
Return: 8.71

====

# targetEntity: human TLR7 (Homo sapiens, UniProt Q9NYK1)
# Sequence (Q9NYK1 27-1049): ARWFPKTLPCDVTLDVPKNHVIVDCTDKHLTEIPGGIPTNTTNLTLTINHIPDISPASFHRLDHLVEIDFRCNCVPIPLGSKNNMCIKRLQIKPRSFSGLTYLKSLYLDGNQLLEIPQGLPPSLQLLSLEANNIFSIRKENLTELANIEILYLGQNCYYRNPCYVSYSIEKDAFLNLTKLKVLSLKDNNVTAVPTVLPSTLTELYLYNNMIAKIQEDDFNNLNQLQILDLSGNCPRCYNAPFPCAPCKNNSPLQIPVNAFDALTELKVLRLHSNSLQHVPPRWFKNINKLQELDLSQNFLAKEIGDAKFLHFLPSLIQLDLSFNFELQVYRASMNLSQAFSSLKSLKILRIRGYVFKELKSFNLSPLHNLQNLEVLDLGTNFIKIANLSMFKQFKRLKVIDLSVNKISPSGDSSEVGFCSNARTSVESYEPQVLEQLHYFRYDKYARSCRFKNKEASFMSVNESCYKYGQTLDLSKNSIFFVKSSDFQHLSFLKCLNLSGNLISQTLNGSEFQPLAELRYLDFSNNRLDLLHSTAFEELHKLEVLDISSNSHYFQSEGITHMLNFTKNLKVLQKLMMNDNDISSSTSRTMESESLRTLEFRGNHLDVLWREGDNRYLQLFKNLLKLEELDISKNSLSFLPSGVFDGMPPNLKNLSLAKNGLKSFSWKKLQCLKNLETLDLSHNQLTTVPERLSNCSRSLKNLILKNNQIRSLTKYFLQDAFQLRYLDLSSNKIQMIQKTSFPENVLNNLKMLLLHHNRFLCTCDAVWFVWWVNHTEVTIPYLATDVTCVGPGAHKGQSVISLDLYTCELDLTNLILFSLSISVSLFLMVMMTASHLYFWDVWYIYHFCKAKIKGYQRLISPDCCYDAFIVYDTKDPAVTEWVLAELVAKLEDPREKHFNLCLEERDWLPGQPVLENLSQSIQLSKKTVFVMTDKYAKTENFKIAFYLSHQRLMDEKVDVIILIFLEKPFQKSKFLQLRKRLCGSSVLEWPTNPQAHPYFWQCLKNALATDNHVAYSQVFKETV
# measurementProtocol: TLR7 inhibition reporter assay (HEK-Blue cells, SEAP reporter, gardiquimod stimulation)
# recordedConditions: HEK-Blue cells overexpressing human TLR7, SEAP reporter, gardiquimod 7.5 μM
metric: IC50 (nM)
Kindly answer with a numeric value in nM, unit omitted.

{"compound": "Cc1cc(-c2[nH]nc(-c3cccnc3)c2C(C)C)cn2ncnc12 [Example 224]", "targetEntity": "human TLR7 (Homo sapiens, UniProt Q9NYK1)", "IC50, nM": 0.56}

Enquiry: Enter reported IC50 observed with human TLR7 (Homo sapiens, UniProt Q9NYK1) for COc1cc(-c2[nH]nc(-c3cnc(C4CCN(C(=O)CN(C)C)CC4)cn3)c2C(C)C)cn2ncnc12 [Example 403]
Return: 26.9

Enquiry: Enter reported IC50 observed with human TLR7 (Homo sapiens, UniProt Q9NYK1) for Cc1cc(-c2[nH]nc(C(=O)N[C@H]3CC[C@H](NC4CCOC(C)(C)C4)CC3)c2C(C)C)cn2ncnc12 (stereo partly shown) [Example 115]
Return: 11.7

Enquiry: Enter reported IC50 observed with human TLR7 (Homo sapiens, UniProt Q9NYK1) for Cc1cc(-c2[nH]nc(C(=O)NC3CCC(NCC(C)(C)C)CC3)c2C(C)C)cn2ncnc12 (stereo not shown) [Example 126]
Return: 0.98

Enquiry: Enter reported IC50 observed with human TLR7 (Homo sapiens, UniProt Q9NYK1) for COc1cc(-c2[nH]nc(-c3nc4c(s3)CN(C)CC4)c2C(C)C)cn2ncnc12 [Example 262]
Return: 23.8

Enquiry: Enter reported IC50 observed with human TLR7 (Homo sapiens, UniProt Q9NYK1) for CCN(CC)CC(=O)N1CCC(c2cnc(-c3n[nH]c(-c4cc(OC)c5ncnn5c4)c3C(C)C)cn2)CC1 [Example 404]
Return: 43.6

Enquiry: Enter reported IC50 observed with human TLR7 (Homo sapiens, UniProt Q9NYK1) for COc1cc(-c2[nH]nc(-c3cnc(C4CCN(CC(C)C)CC4)cn3)c2C(C)C)cn2ncnc12 [Example 379]
Return: 55.7

Enquiry: Enter reported IC50 observed with human TLR7 (Homo sapiens, UniProt Q9NYK1) for Cc1cc(-c2[nH]nc(C(=O)N3CCC(C(N)=O)CC3)c2C(C)C)cn2ncnc12 [Example 15]
Return: 4.15

Enquiry: Enter reported IC50 observed with human TLR7 (Homo sapiens, UniProt Q9NYK1) for Cc1cc(-c2[nH]nc(C(=O)N[C@H]3CCCN(CC4=NC(C)N=N4)C3)c2C(C)C)cn2ncnc12 (stereo partly shown) [Example 165]
Return: 1.61

Enquiry: Enter reported IC50 observed with human TLR7 (Homo sapiens, UniProt Q9NYK1) for CCc1c(C(=O)NC2CCN(C)CC2)n[nH]c1-c1cc(C)c2ncnn2c1 [Example 181]
Return: 9.92
